Biological target: T1, non-tagged, non-linked native human IL-23p19/p40 coexpressed in SF9 cells (eBioscience CAT No. 34-8239) (human, UniProt P29460 23-328)
T1 sequence 1: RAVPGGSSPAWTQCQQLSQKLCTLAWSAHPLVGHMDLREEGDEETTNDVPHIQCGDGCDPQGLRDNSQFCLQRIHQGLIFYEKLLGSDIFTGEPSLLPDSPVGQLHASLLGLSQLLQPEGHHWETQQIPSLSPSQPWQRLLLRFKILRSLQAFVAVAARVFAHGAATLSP
T1 sequence 2: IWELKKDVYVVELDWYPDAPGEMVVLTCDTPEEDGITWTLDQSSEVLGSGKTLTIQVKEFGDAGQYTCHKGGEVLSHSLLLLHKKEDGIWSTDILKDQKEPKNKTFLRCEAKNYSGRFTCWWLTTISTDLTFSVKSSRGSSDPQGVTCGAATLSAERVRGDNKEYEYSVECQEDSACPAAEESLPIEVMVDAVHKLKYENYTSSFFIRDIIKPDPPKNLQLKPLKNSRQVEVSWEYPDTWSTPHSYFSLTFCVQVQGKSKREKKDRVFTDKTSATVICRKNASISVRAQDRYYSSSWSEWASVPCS
Test: cell-based or functional assay
TEST READOUT: IC50 (pM), blocking of Ba/F3 cell proliferation

BINDER: mouse anti-human IL-23p19 antibody 13B5 (antibody, V domains shown, also called m13B5) VH: EVQLQQSGPELVKPGASVKMSCKASGYTFTRYLMHWVKQKPGQGLEWIGYINPYNDGTNYNEKFKGKATLTSDKSSSTAYMELSSLTSEDSAVYYCARNWDVGGYWGQGTTLTVSS VL: DIVMTQSPATLSVTPGDRVSLSCRASQSISDYLHWYQQKSHESPRLLIKYASQSISGIPSRFSGSGSGSDFTLSINSVEPEDVGVYYCQNGHSFPFTFGSGTKLEIKR
UNITS LABEL: pM
VALUE REPORTED: 31

These entries and their values trace back to patent US20130039916A1.
